B1: FUT8 (parent)
chain: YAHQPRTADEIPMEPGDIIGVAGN

Variants of: B1
assay-info: protein stability index of a GFP-peptide fusion (GPS, HEK-293T) (PSI 1-6); higher = more stable;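 also: lentivirally expressed fusions sorted by FACS into six bins by GFP to DsRed ratio, PSI derived from sequencing read proportions per bin multiplied by bin number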
protocol-conditions: c terminus: a fixed tail appended
protein stability index for assorted variants
reported-property: protein stability index

mut | assay-value
P5H | 3.85
G20F | 3.55
V21N | 4.28
E10M | 3.44
I18C | 3.01
D9S | 3.67
P12E | 4.2
G16N | 4.16
N24P | 3.18
G16P | 4.1
